Assay: solvent given as SMILES
Conditions: in OCC(F)(F)F
assay-readout: emission maximum

INSERT INTO results (compound, observed_measurement) VALUES
  ('CCC1=C(C)C2=C(C)c3cccn3[B-](F)(F)[N+]2=C1C', '511 nm'),
  ('CC(C)(C)NC1=C2C=CC=[N+]2[B-](F)(F)n2cccc21', '497.5 nm'),
  ('COC(=O)C(Cc1ccc2oc(-c3ccc(N(c4ccccc4)c4ccccc4)cc3)nc2c1)NC(=O)OC(C)(C)C (centres undefined)', '496.25 nm'),
  ('Cc1ccc(C2=C3C=CC=[N+]3[B-](F)(F)n3cccc32)cc1', '509.5 nm');

###

Test: solvent given as SMILES
Conditions: in CC#N
Where emission maximum equals or exceeds 500 nm, the correct label is MET; where it does not, the label is NOT MET.

INSERT INTO assay_data (chemical_smiles, answer_label) VALUES
  ('CN(C)c1ccc2nc(-c3ccc(C(=O)OC[C@H](NC(=O)OC(C)(C)C)C(=O)OCc4ccccc4)cc3)sc2c1', 'MET'),
  ('FC(F)(F)c1ccc(-c2nnc(-c3cc(-n4c5ccccc5c5ccccc54)c(-n4c5ccccc5c5ccccc54)cc3-c3nnc(-c4ccc(C(F)(F)F)cc4)o3)o2)cc1', 'MET'),
  ('O=C(c1ccc(N(c2ccccc2)c2ccccc2)cc1)[C@H]1[C@H](c2ccc(F)cc2)C[C@](O)(c2ccccn2)C[C@]1(O)c1ccccn1', 'MET'),
  ('Cc1cc(-n2c3ccccc3c3ccccc32)ccc1-c1ccc(S(=O)(=O)c2ccccc2)cc1C', 'NOT MET'),
  ('c1ccc(-c2cc(-c3ccc4ccc5c(-c6ccnc(-c7ccccn7)c6)ccc6ccc3c4c65)ccn2)nc1', 'NOT MET');

###

Assay: solvent given as SMILES
Conditions: in ClC(Cl)Cl
assay-readout: emission maximum

INSERT INTO results (chemical_smiles, observed_measurement) VALUES
  ('COc1ccc(N(c2ccc(OC)cc2)c2ccc3ccc4c(B(c5c(C)cc(C)cc5C)c5c(C)cc(C)cc5C)ccc5ccc2c3c54)cc1', '601 nm'),
  ('CC(C)(C)c1cccc2c1oc1nc3oc4cc(-n5c6ccccc6c6ccccc65)ccc4c3cc12', '397 nm'),
  ('CN(c1ccccc1)c1ccc(/C=C2\C(=O)c3ccccc3S2(=O)=O)cc1', '532 nm'),
  ('C#CCn1c2ccccc2c2cc(/C=C/C3=[N+]4C(=C(c5ccc(I)cc5)c5c(C)c(Cl)c(/C=C/c6ccc7c(c6)c6ccccc6n7CC#C)n5[B-]4(F)F)C(C)=C3Cl)ccc21', '730 nm'),
  ('O[Si](c1c2ccccc2cc2ccccc12)(c1c2ccccc2cc2ccccc12)c1c2ccccc2cc2ccccc12', '434 nm'),
  ('CCCCCCCCc1ccc(-c2c3cc(-c4cc(CCCCCCCC)c(-c5ccc(-c6sc(/C=C7\SC(N8CCCCC8)=NC7=O)cc6CCCCCCCC)s5)s4)sc3c(-c3ccc(CCCCCCCC)s3)c3cc(-c4cc(CCCCCCCC)c(-c5ccc(-c6sc(/C=C7\SC(N8CCCCC8)=NC7=O)cc6CCCCCCCC)s5)s4)sc23)s1', '576 nm');

###

Test: solvent given as SMILES
Details: in CCOC(C)=O
assay-readout: emission maximum (nm)

INSERT INTO assay_data (molecule, observed_measurement) VALUES
  ('CN(C)c1ccc2c3c(ccc2c1)CCCC3=O', 506),
  ('COc1ccc2n1[B-](F)(F)[N+]1=CC=CC1=C2c1ccccc1', 514),
  ('COc1ccc(/N=N/c2c(O)c3ccccc3n(C)c2=O)c(S(=O)(=O)O)c1', 525),
  ('CCCCn1c2ccc(/C=C(\C#N)c3ccc([N+](=O)[O-])cc3)cc2c2cc(Cn3c(-c4ccc5c(c4)c4ccccc4n5CCCC)nc4ccccc43)ccc21', 528),
  ('CCOc1cc2c(cc1/C=C/C1=CC(=C(C#N)C#N)CC(C)(C)C1)c1ccccc1n2CC', 591),
  ('CCCCC(CC)Cn1c2ccc(C(=C(C#N)C#N)c3ccccc3)cc2c2c(-c3ccc(Br)cc3)c3c(c(-c4ccc(Br)cc4)c21)c1cc(C(=C(C#N)C#N)c2ccccc2)ccc1n3CC(CC)CCCC (centres undefined)', 582),
  ('CSC1=C2C=C(c3cc4n(c3)[B-](F)(F)[N+]3=CC=CC3=C4c3c(C)cc(C)cc3C)C(C)=[N+]2[B-](F)(F)n2c(C)ccc21', 664),
  ('CCN(CC)c1ccc2cc(/C=C/C(=C(C#N)C#N)c3ccc(N(c4ccccc4)c4ccccc4)cc3)c(=O)oc2c1', 599),
  ('CC(=O)c1nc(-c2ccc(N(c3ccccc3)c3ccccc3)cc2)oc1C', 419);
